The following binders are shown together with reported Kd values.
target: T1, human PD-L1 antigen (Beijing Sino Biological Inc, Catalog No. #10084-H08H-100) (human, UniProt Q9NZQ7 19-239); assay: BLI (ForteBIO Octet), antibody captured on sensor, human PD-L1 in solution
T1 construct: Bought antigen; also called the antigen
T1 sequence (Q9NZQ7 19-239 limits assumed): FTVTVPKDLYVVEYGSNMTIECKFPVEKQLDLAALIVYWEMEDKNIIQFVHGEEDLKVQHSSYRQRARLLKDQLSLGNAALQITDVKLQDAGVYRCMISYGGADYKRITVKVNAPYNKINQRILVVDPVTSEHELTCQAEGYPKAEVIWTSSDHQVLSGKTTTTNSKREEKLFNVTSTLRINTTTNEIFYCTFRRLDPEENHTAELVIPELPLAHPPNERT
Report the value in nM with no unit label.

Consider the reported Kd for these binders:
binder	unit.tag	Kd
Antibody II-HX-14 (antibody, human IgG4 S228P, kappa, V domains shown) VH: VQLVQSGAEVKKPGASVKVSCKASGYFFSSFVMHWVRQAPGQGLEWMGYINYYNDATKYNEKFKGRVTITSDKSASTAYMELSSLRSEDTAVYYCARSAALSEYWGQGTLVTVSS VL: TQSPSFLSASVGDRVTITCSASSTITYMHWFQQKPGKSPKLWIYYTSNLASGVPARFSGSGSGTSYSLTISSLQPEDFATYYCQNRTSFHYTFGQGTKLEIKR	nM	3.19
Antibody II-HX-17 (antibody, human IgG4 S228P, kappa, V domains shown) VH: VQLVQSGAEVKKPGASVKVSCKASGYFFSSFVMHWVRQAPGQGLEWMGYINHFQDATKYNEKFKGRVTITSDKSASTAYMELSSLRSEDTAVYYCARSVGITDYWGQGTLVTVSS VL: TQSPSFLSASVGDRVTITCSASSTVYYMHWFQQKPGKSPKLWIYSYSNLASGVPARFSGSGSGTSYSLTISSLQPEDFATYYCQQRSSYHYTFGQGTKLEIKR	nM	1.82

Kindly review the next binder as well.
### Prompt Look up Kd: Antibody II-HX-15 (antibody, human IgG4 S228P, kappa, V domains shown, also called antibody II sample; candidate antibody II sample) VH: VQLVQSGAEVKKPGASVKVSCKASGYTFTSYVMHWVRQAPGQGLEWMGYINPYNDGTKYNEKFKGRVTITSDKSASTAYMELSSLRSEDTAVYYCAWSGAIFEYWGQGTLVTVSS VL: TQSPSFLSASVGDRVTITCSASSSVSYMHWFQQKPGKSPKLWIYSTSNLASGVPARFSGSGSGTSYSLTISSLQPEDFATYYCQQRSSYPYTFGQGTKLEIKR
### Response 0.149
